Every entry's value here was drawn from patent US20230192890A1.

The entries below come with measured absorbance 490 nm/630 nm values attached.
# Tested system: full-length recombinant mouse PAD4 (mouse) (UniProt Q9Z183)
# Sequence (Q9Z183 whole entry): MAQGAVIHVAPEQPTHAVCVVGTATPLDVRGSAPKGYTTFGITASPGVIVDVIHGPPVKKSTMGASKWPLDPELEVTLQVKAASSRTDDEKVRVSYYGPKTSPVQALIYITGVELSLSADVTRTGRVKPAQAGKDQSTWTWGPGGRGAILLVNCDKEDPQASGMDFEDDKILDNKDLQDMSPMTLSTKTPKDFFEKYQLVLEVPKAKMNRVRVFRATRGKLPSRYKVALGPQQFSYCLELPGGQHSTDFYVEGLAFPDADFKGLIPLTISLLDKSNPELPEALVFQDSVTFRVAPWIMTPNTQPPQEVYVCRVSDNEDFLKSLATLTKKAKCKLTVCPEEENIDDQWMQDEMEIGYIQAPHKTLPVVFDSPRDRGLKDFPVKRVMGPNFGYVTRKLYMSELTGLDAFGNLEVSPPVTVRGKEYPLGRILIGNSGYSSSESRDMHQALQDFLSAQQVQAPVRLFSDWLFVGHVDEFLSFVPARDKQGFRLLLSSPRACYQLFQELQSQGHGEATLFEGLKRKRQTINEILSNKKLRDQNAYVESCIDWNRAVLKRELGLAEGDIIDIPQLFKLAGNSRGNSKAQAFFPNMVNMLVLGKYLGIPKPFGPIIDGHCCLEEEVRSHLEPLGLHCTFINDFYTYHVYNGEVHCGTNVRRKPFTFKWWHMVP
# Procedure details: ELISA, mouse PAD4 on plate, antibody 0.0002441 ug/mL
Respond with the bare value in OD.

Example entries and their recorded answers appear below.
>  <Binder>
G8 (antibody, IgG1, V domains shown) VH: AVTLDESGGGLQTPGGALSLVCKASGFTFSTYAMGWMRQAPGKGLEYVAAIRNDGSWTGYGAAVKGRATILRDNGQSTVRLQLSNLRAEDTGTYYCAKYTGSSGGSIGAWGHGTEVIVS VL: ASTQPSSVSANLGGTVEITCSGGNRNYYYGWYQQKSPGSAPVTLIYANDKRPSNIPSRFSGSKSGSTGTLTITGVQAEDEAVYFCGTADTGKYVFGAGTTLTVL

>  <Recorded result>
0.205

$$$$
>  <Binder>
G6 (antibody, IgG1, V domains shown) VH: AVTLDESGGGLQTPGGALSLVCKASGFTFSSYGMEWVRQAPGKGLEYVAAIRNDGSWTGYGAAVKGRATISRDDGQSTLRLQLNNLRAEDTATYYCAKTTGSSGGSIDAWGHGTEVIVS VL: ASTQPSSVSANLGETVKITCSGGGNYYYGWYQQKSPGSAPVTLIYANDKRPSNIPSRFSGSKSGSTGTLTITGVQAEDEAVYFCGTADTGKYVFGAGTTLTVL

>  <Recorded result>
0.071

$$$$
>  <Binder>
G9 (antibody, IgG1, V domains shown) VH: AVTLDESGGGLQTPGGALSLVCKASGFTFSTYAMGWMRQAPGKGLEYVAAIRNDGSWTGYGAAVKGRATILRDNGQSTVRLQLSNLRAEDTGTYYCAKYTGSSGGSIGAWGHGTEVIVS VL: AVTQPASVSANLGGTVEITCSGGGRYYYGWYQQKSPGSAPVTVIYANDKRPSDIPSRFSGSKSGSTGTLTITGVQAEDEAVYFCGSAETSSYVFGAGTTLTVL

>  <Recorded result>
0.181

$$$$

Consider the binder A11 (antibody, IgG1, V domains shown) VH: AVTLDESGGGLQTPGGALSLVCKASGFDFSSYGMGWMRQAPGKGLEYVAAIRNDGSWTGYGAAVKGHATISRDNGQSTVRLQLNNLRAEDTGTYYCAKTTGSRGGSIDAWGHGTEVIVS VL: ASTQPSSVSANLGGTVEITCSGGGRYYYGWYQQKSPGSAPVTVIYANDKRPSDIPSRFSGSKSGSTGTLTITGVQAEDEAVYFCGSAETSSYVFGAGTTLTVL and give its measured absorbance 490 nm/630 nm.
0.152

# lookup: absorbance 490 nm/630 nm of H7 (antibody, IgG1, V domains shown) VH: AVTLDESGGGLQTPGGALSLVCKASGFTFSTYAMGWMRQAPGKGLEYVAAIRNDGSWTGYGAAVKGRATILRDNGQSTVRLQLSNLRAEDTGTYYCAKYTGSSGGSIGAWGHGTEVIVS VL: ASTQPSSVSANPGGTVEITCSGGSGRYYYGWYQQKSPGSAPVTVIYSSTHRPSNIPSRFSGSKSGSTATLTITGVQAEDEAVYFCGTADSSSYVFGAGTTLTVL
0.224

What value of measured absorbance 490 nm/630 nm is listed for E9 (antibody, IgG1, V domains shown) VH: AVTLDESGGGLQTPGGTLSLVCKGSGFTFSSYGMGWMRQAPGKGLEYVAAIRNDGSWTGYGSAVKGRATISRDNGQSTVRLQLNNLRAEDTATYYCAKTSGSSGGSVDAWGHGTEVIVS VL: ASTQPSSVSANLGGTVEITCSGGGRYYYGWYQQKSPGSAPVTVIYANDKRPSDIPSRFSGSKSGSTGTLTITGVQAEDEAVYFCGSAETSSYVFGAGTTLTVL ?
0.122
